Target: ALK3 (Homo sapiens, UniProt P36894)
Sequence (P36894 24-532): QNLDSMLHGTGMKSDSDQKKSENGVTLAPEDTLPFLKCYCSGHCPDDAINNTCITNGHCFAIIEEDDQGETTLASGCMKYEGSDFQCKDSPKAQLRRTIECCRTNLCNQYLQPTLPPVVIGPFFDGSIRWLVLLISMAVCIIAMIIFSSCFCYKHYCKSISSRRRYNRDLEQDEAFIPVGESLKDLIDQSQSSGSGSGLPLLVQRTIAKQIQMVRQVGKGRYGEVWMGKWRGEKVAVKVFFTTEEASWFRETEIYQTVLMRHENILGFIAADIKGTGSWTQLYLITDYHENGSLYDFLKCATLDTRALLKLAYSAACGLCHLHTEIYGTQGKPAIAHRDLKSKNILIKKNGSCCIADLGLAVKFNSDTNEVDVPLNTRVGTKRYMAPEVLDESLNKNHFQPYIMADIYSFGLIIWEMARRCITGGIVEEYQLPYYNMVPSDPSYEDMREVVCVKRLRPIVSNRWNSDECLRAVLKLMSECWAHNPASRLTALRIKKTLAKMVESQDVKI
Experiment: TR-FRET enzymatic ALK kinase assay, ALK3
pIC50: −log10 of the molar value.
endpoint.name: pIC50

compound	pIC50
CC(O)c1cccc(-c2cnn3cc(-c4ccc(OCCN5CCCC5)cc4)cnc23)c1 (stereo not drawn)	5.59
C[S+](=O)([O-])c1cccc(-c2cnn3cc(-c4ccc(OC5(CN6CCCCC6)COC5)cc4)cnc23)c1	5.82
C[C@@H]1CNC[C@H](C)N1c1ccc(-c2cnc3c(-c4ccc(C(N)=O)c5ccccc45)cnn3c2)cc1	7.38
CS(=O)(=O)c1cccc(-c2cnn3cc(-c4ccc(OC5(CN6CCC(O)CC6)CC5)cc4)cnc23)c1	6.06
C[C@@H](O)c1cccc(-c2cnn3cc(-c4ccc(CCN5CCCC5)cc4)cnc23)c1	5.21

(P) C[C@@H]1CNC[C@H](C)N1c1ccc(-c2cnc3c(-c4cccc(C[S+](C)(=O)[O-])c4)cnn3c2)cc1
(Q) NS(=O)(=O)c1cccc(-c2cnn3cc(-c4ccc(C5CCNCC5)cc4)cnc23)c1
Query :: When P and Q are compared, which has the higher number for pIC50? To answer, give the label that identifies your chosen option.
Result :: P
(P: 5.47, Q: 5.01)

(A) CC(O)c1cccc(-c2cnn3cc(-c4ccc(CCN5CCCCC5)cc4)cnc23)c1 (stereo not drawn)
(B) C[S+](=O)([O-])c1cccc(-c2cnn3cc(-c4ccc(OC5(CN6CCOCC6)CC5)cc4)cnc23)c1
(C) CS(=O)(=O)c1cccc(-c2cnn3cc(-c4ccc(OC5(CN6CCNCC6)CC5)cc4)cnc23)c1
Query :: Give the ascending ranking of the items by reported pIC50. Rank the items, then write their labels in that order.
Result :: A, C, B
(A: 5.52, C: 5.82, B: 6.12)

----------
Biological target: ALK5 (Homo sapiens)
Sequence (P36897 34-503): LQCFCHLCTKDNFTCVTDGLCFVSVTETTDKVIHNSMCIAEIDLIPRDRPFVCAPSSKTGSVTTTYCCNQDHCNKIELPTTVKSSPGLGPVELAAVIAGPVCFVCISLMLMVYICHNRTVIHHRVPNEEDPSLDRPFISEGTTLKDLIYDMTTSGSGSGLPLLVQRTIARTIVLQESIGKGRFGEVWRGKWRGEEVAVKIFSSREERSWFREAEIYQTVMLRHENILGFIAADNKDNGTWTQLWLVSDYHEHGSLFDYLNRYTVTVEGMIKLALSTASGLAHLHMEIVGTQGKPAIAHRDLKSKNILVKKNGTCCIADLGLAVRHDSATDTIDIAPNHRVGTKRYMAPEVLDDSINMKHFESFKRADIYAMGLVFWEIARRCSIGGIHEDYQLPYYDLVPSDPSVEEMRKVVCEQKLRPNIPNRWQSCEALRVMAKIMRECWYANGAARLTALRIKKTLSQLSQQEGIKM
Assay: TR-FRET enzymatic ALK kinase assay, ALK5
pIC50: −log10 of the molar value.
endpoint.name: pIC50

(1) C[C@@H]1CNC[C@H](C)N1c1ccc(-c2cnc3c(-c4ccc(C(N)=O)c5ccccc45)cnn3c2)cc1
(2) C[C@@H]1CNC[C@H](C)N1c1ccc(-c2cnc3c(-c4cccc5ccccc45)cnn3c2)cc1
(3) CC(=O)c1ccc(-c2cnn3cc(-c4ccc(N5[C@H](C)CNC[C@@H]5C)cc4)cnc23)c2ccccc12
Query :: Hey, can you sort those compounds up there by pIC50, smallest first? I'd appreciate it if you listed the labels in the requested order.
Result :: 2, 3, 1
(2: 4.22, 3: 4.87, 1: 5.27)
